# TARGET_OR_TEST_SYSTEM: Tumor necrosis factor ligand superfamily member 11 (Homo sapiens) (UniProt O14788)
# TEST_DESCRIPTION: Inhibition of human RANKL-induced osteoclastogenesis in RANKL cultured mouse bone marrow cells assessed as reduction in RANKL/M-CSF-induced TRAP activity at 5 uM preincubated with RANKL for 1 hr followed by cell addition and subsequent media replenishment every 48 hrs for 4 days
# Type: cell-based
# EXPERIMENTAL_CONDITIONS: time 4.0 day
Calls of active or inactive are those of the source. The rule behind the calls is not given here.
QUANTITY_KIND: inhibition

O=C(NCCNC(=O)c1cn(S(=O)(=O)c2ccccc2)c2ccccc12)c1ccc2ccccc2c1 : inactive
Nc1cccc(-n2cc(C(=O)N3CCN(C(=O)c4coc5ccccc5c4=O)CC3)c3ccccc32)c1 : inactive
O=C(NCCCNC(=O)c1cn(S(=O)(=O)c2ccccc2)c2ccccc12)c1ccccc1 : inactive
O=C(c1ccc2ccccc2c1)N1CCN(C(=O)c2cn(S(=O)(=O)c3ccccc3)c3ccccc23)CC1 : inactive
CN(CCN(C)C(=O)c1cn(S(=O)(=O)c2ccccc2)c2ccccc12)C(=O)c1coc2ccccc2c1=O : 100%
CN(CCN(C)C(=O)c1cn(-c2cccc(N)c2)c2ccccc12)C(=O)c1coc2ccccc2c1=O : inactive
O=C(c1coc2ccccc2c1=O)N1CCN(C(=O)c2cn(S(=O)(=O)c3cccc([N+](=O)[O-])c3)c3ccccc23)CC1 : 100%
CN(CCN(C)C(=O)c1cn(-c2cccc([N+](=O)[O-])c2)c2ccccc12)C(=O)c1coc2ccccc2c1=O : 100%
O=C(c1ccc2ccccc2c1)N1CCN(Cc2cn(-c3cccc(C(F)(F)F)c3)c3ccccc23)CC1 : inactive
Cc1cc2occ(C(=O)N3CCN(C(=O)c4cn(-c5cccc(C(F)(F)F)c5)c5ccccc45)CC3)c(=O)c2cc1C : 100%

Enquiry: Note down inhibition recorded for O=C(c1ccc2ccccc2c1)N1CCN(C(=O)c2cn(-c3cccc(C(F)(F)F)c3)c3ccccc23)CC1
Return: inactive

Enquiry: Find the measured inhibition of CN(CCN(C)C(=O)c1cn(-c2cccc(C(F)(F)F)c2)c2ccc([N+](=O)[O-])cc12)C(=O)c1coc2ccccc2c1=O and report it.
Return: 100%

Enquiry: State its inhibition: Cc1cc2occ(CN3CCN(Cc4cn(-c5cccc(C(F)(F)F)c5)c5ccccc45)CC3)c(=O)c2cc1C
Return: 100%

Enquiry: Input Nc1cccc(S(=O)(=O)n2cc(C(=O)N3CCN(C(=O)c4coc5ccccc5c4=O)CC3)c3ccccc32)c1 , output reported inhibition.
Return: inactive

Enquiry: Check the records and state inhibition for CN(CCN(C)C(=O)c1cn(S(=O)(=O)c2ccccc2)c2ccccc12)C(=O)c1ccccc1
Return: inactive

----------
# TARGET_OR_TEST_SYSTEM: Tumor necrosis factor ligand superfamily member 11 (Homo sapiens, UniProt O14788)
# TEST_DESCRIPTION: Binding affinity to GST-fused human RANKL extracellular domain (Lys159 to Asp317 residues) expressed in Escherichia coli BL21(DE3) pLysS by fluorescence spectrophotometric assay
# EXPERIMENTAL_CONDITIONS: read-out: Kd
QUANTITY_KIND: log10(Kd) (log10 of the value in µM)
Each number you see is log10 of Kd, and the unit inside the log is µM.

Enquiry: Give the reported log10(Kd) for this molecule. Nc1cccc(-n2cc(C(=O)N3CCN(C(=O)c4coc5ccccc5c4=O)CC3)c3ccccc32)c1
Return: 1.28

Enquiry: Fill in log10(Kd) for record CN(CCN(C)Cc1cn(S(=O)(=O)c2ccccc2)c2ccccc12)Cc1coc2ccccc2c1=O
Return: 0.72

Enquiry: Provide only the value of recorded log10(Kd) for Cc1cc2occ(CN(C)CCN(C)Cc3cn(S(=O)(=O)c4ccccc4)c4ccccc34)c(=O)c2cc1C
Return: 0.94

Enquiry: Give the measured log10(Kd) for CN(CCN(C)C(=O)c1cn(S(=O)(=O)c2cccc([N+](=O)[O-])c2)c2ccccc12)C(=O)c1coc2ccccc2c1=O
Return: 0.66

Enquiry: Given the molecule CN(CCN(C)C(=O)c1cn(S(=O)(=O)c2cccc(N)c2)c2ccccc12)C(=O)c1coc2ccccc2c1=O , write its reported log10(Kd).
Return: 1.35

Enquiry: Read the entry CN(CCN(C)C(=O)c1cn(-c2cccc([N+](=O)[O-])c2)c2ccccc12)C(=O)c1coc2ccccc2c1=O and write its reported log10(Kd).
Return: 0.34

Enquiry: Give a short answer stating reported log10(Kd) for O=C(c1cccs1)N1CCN(C(=O)c2c[nH]c3ccc([N+](=O)[O-])cc23)CC1 .
Return: 1.20

Enquiry: Report measured log10(Kd); entry is O=C(c1coc2ccccc2c1=O)N1CCN(Cc2cn(-c3cccc(C(F)(F)F)c3)c3ccccc23)CC1
Return: 0.93

Enquiry: Entry Cc1ccc2c(=O)c(CN(C)CCN(C)Cc3cn(S(=O)(=O)c4ccccc4)c4ccccc34)coc2c1 needs its log10(Kd) filled in; supply it.
Return: 0.69

----------
# TARGET_OR_TEST_SYSTEM: Tumor necrosis factor ligand superfamily member 11 (Homo sapiens) (UniProt O14788)
# Sequence (whole entry): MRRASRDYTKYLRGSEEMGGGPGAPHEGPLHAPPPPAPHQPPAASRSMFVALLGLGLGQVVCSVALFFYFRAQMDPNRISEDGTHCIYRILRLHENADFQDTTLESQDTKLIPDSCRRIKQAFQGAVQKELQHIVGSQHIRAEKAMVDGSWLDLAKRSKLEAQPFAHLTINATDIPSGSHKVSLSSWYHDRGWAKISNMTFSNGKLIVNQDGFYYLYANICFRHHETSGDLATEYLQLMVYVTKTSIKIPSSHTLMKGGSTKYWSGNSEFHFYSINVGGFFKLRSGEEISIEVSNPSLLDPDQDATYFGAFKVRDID
# TEST_DESCRIPTION: Inhibition of human RANKL-induced osteoclastogenesis in RANKL cultured mouse bone marrow cells assessed as reduction in RANKL/M-CSF-induced TRAP activity preincubated with RANKL for 1 hr followed by cell addition and subsequent media replenishment every 48 hrs for 4 days
# Assay type: cell-based
# EXPERIMENTAL_CONDITIONS: time 4.0 day
QUANTITY_KIND: inhibition

Answered examples (4):
CN(CCN(C)C(=O)c1cn(S(=O)(=O)c2cccc([N+](=O)[O-])c2)c2ccccc12)C(=O)c1coc2ccccc2c1=O : Dose-dependent effect
Cc1cc2occ(CN(C)CCN(C)Cc3cn(-c4cccc(C(F)(F)F)c4)c4ccccc34)c(=O)c2cc1C : Dose-dependent effect
CN(CCN(C)C(=O)c1cn(S(=O)(=O)c2ccccc2)c2ccccc12)C(=O)c1coc2ccccc2c1=O : Dose-dependent effect
CN(CCN(C)Cc1cn(S(=O)(=O)c2ccccc2)c2ccccc12)Cc1coc2ccccc2c1=O : Dose-dependent effect

Could you now consider this next compound?
Enquiry: Jot down inhibition (Tumor necrosis factor ligand superfamily member 11 (Homo sapiens) (UniProt O14788)) of CN(CCN(C)C(=O)c1cn(-c2cccc([N+](=O)[O-])c2)c2ccccc12)C(=O)c1coc2ccccc2c1=O .
Return: Dose-dependent effect

----------
# TARGET_OR_TEST_SYSTEM: UniProtKB O14788
# TEST_DESCRIPTION: Binding affinity to GST-fused human RANKL extracellular domain (Lys159 to Asp317 residues) expressed in Escherichia coli BL21(DE3) pLysS by fluorescence spectrophotometric assay
QUANTITY_KIND: Kd

Nc1cccc(-n2cc(C(=O)N3CCN(C(=O)C4COc5ccccc5C4=O)CC3)c3cc(N)ccc32)c1 (stereo not drawn) : Not Active
Nc1cccc(S(=O)(=O)n2cc(C(=O)N3CCN(C(=O)c4coc5ccccc5c4=O)CC3)c3ccccc32)c1 : Not Active
O=C(c1coc2ccccc2c1=O)N1CCN(Cc2cn(-c3cccc(C(F)(F)F)c3)c3ccc([N+](=O)[O-])cc23)CC1 : Not Active
O=C(c1ccc2ccccc2c1)N1CCN(Cc2cn(-c3cccc(C(F)(F)F)c3)c3ccc([N+](=O)[O-])cc23)CC1 : Not Active
O=C(NCCCNC(=O)c1cn(S(=O)(=O)c2ccccc2)c2ccccc12)c1coc2ccccc2c1=O : Not Active

Enquiry: Return reported Kd. Input molecule: O=C(c1coc2ccccc2c1=O)N1CCN(C(=O)c2cn(S(=O)(=O)c3cccc([N+](=O)[O-])c3)c3ccccc23)CC1
Return: Not Active

Enquiry: Supply Kd value. Item: O=C(c1ccc2ccccc2c1)N1CCN(Cc2cn(-c3cccc(C(F)(F)F)c3)c3ccccc23)CC1
Return: Not Active

Enquiry: Using known records, supply Kd for O=C(c1ccc2ccccc2c1)N1CCN(C(=O)c2cn(S(=O)(=O)c3ccccc3)c3ccccc23)CC1
Return: Not Active

----------
# TEST_DESCRIPTION: Therapeutic index, ratio of LC50 for mouse bone marrow cells to IC50 for Inhibition of human RANKL-induced osteoclastogenesis in RANKL cultured mouse bone marrow cells
# Type: toxicity
# EXPERIMENTAL_CONDITIONS: read-out: Ratio LC50/IC50
QUANTITY_KIND: selectivity ratio
In your answer, state the number alone without any accompanying words.

Enquiry: Supply measured selectivity ratio of O=C(c1cn(S(=O)(=O)c2cccc([N+](=O)[O-])c2)c2ccccc12)N1CCN(S(=O)(=O)c2cccc([N+](=O)[O-])c2)CC1 in your reply.
Return: 18.5

Enquiry: Identify measured selectivity ratio corresponding to CN(CCN(C)C(=O)c1cn(S(=O)(=O)c2ccccc2)c2ccccc12)C(=O)c1coc2ccccc2c1=O
Return: 21.8

Enquiry: State its selectivity ratio for this compound: CN(CCN(C)C(=O)c1cn(-c2cccc([N+](=O)[O-])c2)c2ccccc12)C(=O)c1coc2ccccc2c1=O
Return: 27.8

Enquiry: // fetch selectivity ratio given entry CN(CCN(C)C(=O)c1cn(S(=O)(=O)c2cccc([N+](=O)[O-])c2)c2ccccc12)C(=O)c1coc2ccccc2c1=O
Return: 6.3

Enquiry: Consider the compound N#Cc1ccc(S(=O)(=O)N2CCN(C(=O)c3cn(S(=O)(=O)c4cccc([N+](=O)[O-])c4)c4ccccc34)CC2)cc1 and give its recorded selectivity ratio.
Return: 10.4

Enquiry: Please supply the value of reported selectivity ratio for the item O=C(c1cn(S(=O)(=O)c2cccc([N+](=O)[O-])c2)c2ccccc12)N1CCN(S(=O)(=O)c2ccccc2)CC1
Return: 84.8

Enquiry: Output selectivity ratio of CN(CCN(C)S(=O)(=O)c1cccc([N+](=O)[O-])c1)C(=O)c1cn(S(=O)(=O)c2cccc([N+](=O)[O-])c2)c2ccccc12
Return: 9.5

Enquiry: Give selectivity ratio for Cc1cc2occ(CN(C)CCN(C)Cc3cn(-c4cccc(C(F)(F)F)c4)c4ccccc34)c(=O)c2cc1C
Return: 3.2

Enquiry: Answer with the recorded selectivity ratio of CN(CCN(C)Cc1cn(S(=O)(=O)c2ccccc2)c2ccccc12)Cc1coc2ccccc2c1=O only.
Return: 23.4

Entry source: ChEMBL document CHEMBL4665827
